Source: patent EP4603105A1

System: human bladder cancer strain UM-UC-3
Format: cell-based
Experimental: A test compound was dispensed into a U-bottom 384-well plate as 40 nL serially diluted dimethyl sulfoxide solutions using a liquid handler Echo (LABCYTE). […] Seven days later, 20 µL of CellTiter-Glo (registered trademark) (Promega) was added to each well and luminescence was measured. […]
Quantity name: pIC50
Please express pIC50 as -log10 of the molar concentration.

Incoming: # input molecule: CCO[C@@H]1C[C@H]2C(=O)NC3(CC(C)(C)C3)C(=O)N(C)[C@@H](C3CCCC3)C(=O)N(C)[C@H](C(=O)N(C)C)CC(=O)N(C)[C@@H]([C@@H](C)OC)C(=O)N[C@@H]([C@@H](C)CC)C(=O)N(C)CC(=O)N(C)[C@H]3C/C=C\CCN(C3=O)[C@@H](Cc3ccc(C(F)(F)F)cc3)C(=O)N(C)CC(=O)N[C@@H](CCc3ccc(C(F)(F)F)c(OC)c3)C(=O)N2C1 ; wanted: its pIC50
Outgoing: 8.57

----------
target: GDP-bound KRAS wild-type protein (Homo sapiens, UniProt P01116); test: Binding to KRAS by surface plasmon resonance (SPR), dissociation constant KD; details: Single Cycle Kinetics, 1:1 binding model
Sequence (P01116 1-188 isoform P01116-2): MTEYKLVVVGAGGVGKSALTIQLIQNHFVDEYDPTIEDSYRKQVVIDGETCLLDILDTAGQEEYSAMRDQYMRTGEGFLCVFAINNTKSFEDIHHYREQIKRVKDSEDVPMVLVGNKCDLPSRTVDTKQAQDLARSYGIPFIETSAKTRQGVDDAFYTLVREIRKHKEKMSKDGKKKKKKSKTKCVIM
I'd appreciate it if you could supply Kd values for the items below.
Respond with the bare value in nM.

Incoming: Any idea what Kd was measured for CCO[C@@H]1C[C@H]2C(=O)NC3(CCC3)C(=O)N(C)[C@@H](C3CCCC3)C(=O)N(C)[C@H](C(=O)N(C)C)CC(=O)N(C)[C@@H](CC(C)(C)C)C(=O)N[C@@H]([C@@H](C)CC)C(=O)N(C)CC(=O)N(C)[C@H]3CCCCCN(C3=O)[C@@H](Cc3ccc(C(F)(F)F)cc3)C(=O)N(C)CC(=O)N[C@@H](CCc3cc(F)c(C(F)(F)F)c(F)c3)C(=O)N2C1 ?
Outgoing: 0.52

Incoming: Another compound: CCO[C@@H]1C[C@H]2C(=O)NC3(CCC3)C(=O)N(C)[C@@H](C3CCCC3)C(=O)N(C)[C@H](C(=O)N3CCOCC3)CC(=O)N(C)[C@@H](CC(C)C)C(=O)N[C@@H]([C@@H](C)CC)C(=O)N3CC[C@H]3C(=O)N(C)[C@H]3CC[C@@H](C)CN(C3=O)[C@@H](Cc3ccc(C(F)(F)F)cc3)C(=O)N(C)CC(=O)N[C@@H](CCc3cc(F)c(C(F)(F)F)c(F)c3)C(=O)N2C1
Outgoing: 0.35

Incoming: Record: CCO[C@@H]1C[C@H]2C(=O)NC3(CCC3)C(=O)N(C)[C@@H](C3CCCC3)C(=O)N(C)[C@H](C(=O)N3CCOCC3)CC(=O)N(C)[C@@H](CC3CC3)C(=O)N[C@@H]([C@@H](C)CC)C(=O)N(C)CC(=O)N(C)[C@H]3C/C=C\CCN(C3=O)[C@@H](Cc3ccc(C)cc3)C(=O)N(C)CC(=O)N[C@@H](CCc3cc(F)c(C(F)(F)F)c(F)c3)C(=O)N2C1
Outgoing: 0.22

Incoming: Try CC[C@H](C)[C@@H]1NC(=O)[C@H](CC)N(C)C(=O)C[C@@H](C(=O)N(C)C)N(C)C(=O)[C@H](C2CCCC2)N(C)C(=O)C2(CCC2)NC(=O)[C@@H]2C[C@@H](OC)CN2C(=O)[C@H](CCc2cc(F)c(C(F)(F)F)c(F)c2)NC(=O)CN(C)C(=O)[C@H](Cc2ccc(C(F)(F)F)cc2)N2CC/C=C\C[C@@H](C2=O)N(C)C(=O)CN(C)C1=O next.
Outgoing: 0.035

Incoming: Field entry: CCO[C@@H]1C[C@H]2C(=O)NC3(CCC3)C(=O)N(C)[C@@H](C3CCCC3)C(=O)N(C)[C@H](C(=O)N3CCOCC3)CC(=O)N(C)[C@@H](CC)C(=O)N[C@@H]([C@@H](C)CC)C(=O)N3CC[C@H]3C(=O)N(C)[C@H]3C[C@@H](C)[C@@H](C)CN(C3=O)[C@@H](Cc3ccc(C(F)(F)F)cc3)C(=O)N(C)CC(=O)N[C@@H](CCc3ccc(C(F)(F)F)c(Cl)c3)C(=O)N2C1
Outgoing: 0.13

Incoming: Likewise for CCO[C@@H]1C[C@H]2C(=O)NC3(CCCC3)C(=O)N(C)[C@@H](C3CCCC3)C(=O)N(C)[C@H](C(=O)N(C)C)CC(=O)N(C)[C@@H](CC3CC3)C(=O)N[C@@H]([C@@H](C)CC)C(=O)N(C)CC(=O)N(C)[C@H]3C[C@@H](C)[C@@H](C)CN(C3=O)[C@@H](Cc3ccc(C(F)(F)F)cc3)C(=O)N(C)CC(=O)N[C@@H](CCc3cc(F)c(C(F)(F)F)c(F)c3)C(=O)N2C1 ?
Outgoing: 0.047

Incoming: What do you get for CCCOC[C@H]1C(=O)N[C@@H]([C@@H](C)CC)C(=O)N(C)CC(=O)N(C)[C@H]2C/C=C\CCN(C2=O)[C@@H](Cc2ccc(C)cc2)C(=O)N(C)CC(=O)N[C@@H](CCc2ccc(C(F)(F)F)c(OC)c2)C(=O)N2C[C@H](OCC)C[C@H]2C(=O)N(C)C2(CCC2)C(=O)N(C)[C@@H](C2CCCC2)C(=O)N(C)[C@H](C(=O)N(C)C)CC(=O)N1C ?
Outgoing: 0.031

Incoming: Next compound: CCO[C@@H]1C[C@H]2C(=O)NC3(CCC3)C(=O)N(C)[C@@H](C3CCCC3)C(=O)N(C)[C@H](C(=O)N(C)C)CC(=O)N(C)[C@@H](COCC(F)(F)F)C(=O)N[C@@H]([C@@H](C)CC)C(=O)N(C)CC(=O)N(C)[C@H]3C/C=C\CCN(C3=O)[C@@H](Cc3ccc(C(F)(F)F)cc3)C(=O)N(C)CC(=O)N[C@@H](CCc3cc(F)c(C(F)(F)F)c(F)c3)C(=O)N2C1
Outgoing: 0.046

Incoming: Ok, now CC[C@H](C)[C@@H]1NC(=O)[C@H](CC(C)C)N(C)C(=O)C[C@@H](C(=O)N(C)C)N(C)C(=O)[C@H](C2CCCC2)N(C)C(=O)C2(CCCC2)NC(=O)[C@@H]2CCCN2C(=O)[C@H](CCc2ccc(C(F)(F)F)c(Cl)c2)NC(=O)CN(C)C(=O)[C@H](Cc2ccc(C(F)(F)F)cc2)N2CC=CCOC[C@H](C2=O)N(C)C(=O)CN(C)C1=O
Outgoing: 2.4

Incoming: Now give it for CC[C@H](C)[C@@H]1NC(=O)[C@H](CC(C)C)N(C)C(=O)C[C@@H](C(=O)N(C)C)N(C)C(=O)[C@H](C2CCCC2)N(C)C(=O)C2(CCCC2)NC(=O)[C@@H]2CCCN2C(=O)[C@H](CCc2ccc(C(F)(F)F)c(Cl)c2)NC(=O)CN(C)C(=O)[C@H](Cc2ccc(C)cc2)N2CC=CCOC[C@H](C2=O)N(C)C(=O)CN(C)C1=O too.
Outgoing: 2.4

Incoming: CCO[C@@H]1C[C@H]2C(=O)NC3(CCC3)C(=O)N(C)[C@@H](C3CCCC3)C(=O)N(C)[C@H](C(=O)N3CCOCC3)CC(=O)N(C)[C@@H](Cc3ccsc3)C(=O)N[C@@H]([C@@H](C)CC)C(=O)N(C)CC(=O)N(C)[C@H]3CCCCCN(C3=O)[C@@H](Cc3ccc(C(F)(F)F)cc3)C(=O)N(C)CC(=O)N[C@@H](CCc3cc(F)c(C(F)(F)F)c(F)c3)C(=O)N2C1 , same question.
Outgoing: 0.52

----------
tested on: human lung cancer strain NCI-H441; experiment: NCI-H441 cell proliferation inhibitory activity (CellTiter-Glo, 4 days); assay type: cell-based; conditions: NCI-H441 cells, 4 days, read-out: NCl-H441 IC50
Quantity name: IC50
Hi, when you answer, please include the unit after the number. Thanks!

Incoming: Can you look up the measured IC50 of CCO[C@@H]1C[C@H]2C(=O)NC3(CC(C)(C)C3)C(=O)N(C)[C@@H](C(CC)CC)C(=O)N(C)[C@H](C(=O)N(C)C)CC(=O)N(C)[C@@H](COC)C(=O)N[C@@H]([C@@H](C)CC)C(=O)N3CCC[C@H]3C(=O)N(C)[C@H]3C/C=C\CCN(C3=O)[C@@H](Cc3ccc(C(F)(F)F)cc3)C(=O)N(C)CC(=O)N[C@@H](CCc3ccc(Cl)c(Cl)c3)C(=O)N2C1 for me?
Outgoing: 0.0502 µM

Incoming: Now the same for CC[C@H](C)[C@@H]1NC(=O)[C@H](COC)N(C)C(=O)C[C@@H](C(=O)N(C)C)N(C)C(=O)[C@H](C2CCCCC2)N(C)C(=O)C2(CC(C)(C)C2)NC(=O)[C@@H]2C[C@@H](OC(C)C)CN2C(=O)[C@H](CCc2ccc(Cl)c(Cl)c2)NC(=O)CN(C)C(=O)[C@H](Cc2ccc(C(F)(F)F)cc2)N2CC/C=C\C[C@@H](C2=O)N(C)C(=O)CN(C)C1=O
Outgoing: 0.0131 µM

Incoming: Try the compound C#CC[C@H]1C(=O)N[C@@H]([C@@H](C)CC)C(=O)N(C2CC2)CC(=O)N(C)[C@H]2C/C=C\CCN(C2=O)[C@@H](Cc2ccc(C)cc2)C(=O)N(C)CC(=O)N[C@@H](CCc2ccc(C(F)(F)F)c(OC)c2)C(=O)N2C[C@H](OCC)C[C@H]2C(=O)OC2(CCC2)C(=O)N(C)[C@@H](C2CCCC2)C(=O)N(C)[C@H](C(=O)N(C)C)CC(=O)N1C
Outgoing: 0.0228 µM
